The reported measurements were obtained from paper PMC4775916.

Would you kindly list pKd for each of these compounds?
biological target: VIM-2 (Escherichia coli); construct: His6 (N, cleaved yes); test: 1H CPMG NMR binding assay (thiomandelic acid reporter ligand displacement); conditions: 50 μM thiomandelic acid, 50 μM enzyme, 50 mM Tris-D11 pH 7.5, read-out: KD app VIM-2
Numbers only, as −log10 of the molar value.

Below are some compounds; for each one, tell me its pKd.
1. O=C(N[C@H](Cc1c[nH]c2ccccc12)C(=O)O)c1nc(Cl)c2ccccc2c1O [compound 1]
2. O=C(N[C@@H](Cc1c[nH]c2ccccc12)C(=O)O)c1nc(Cl)c2ccccc2c1O [compound 2]

A)
1: 3.74; 2: 3.48
